Test: Determination of solubility in water at room temperature by HPLC
Type: physicochemical
Details: thermodynamic from solid, saturated solubility not determined, read-out: Minimum solubility in water at room temperature
Structures can show the parent of a compound that is named as a salt.
Readout Label: solubility

>  <Compound>
CC(C)C[C@H](N)C(=O)OCN1C(=O)CCC(N2C(=O)c3cccc(N)c3C2=O)C1=O (stereo partly drawn) [Hydrochloride salt of compound 4]

>  <solubility>
> 300 mg/mL

$$$$
>  <Compound>
Nc1cccc2c1C(=O)N(C1CCC(=O)N(COC(=O)[C@@H](N)Cc3ccccc3)C1=O)C2=O (stereo partly drawn) [Hydrochloride salt of compound 7]

>  <solubility>
> 300 mg/mL

$$$$

Query: Given NCC(=O)OCN1C(=O)CCC(N2C(=O)c3cccc(N)c3C2=O)C1=O (stereo not drawn) [Hydrochloride salt of compound 2] , state its recorded solubility.
Response: > 300 mg/mL
